- Test system: Streptococcus pyogenes
- ASSAY_OVERVIEW: Antibacterial activity against Streptococcus pyogenes group A clinical isolate assessed as susceptibility level by broth microdilution method
- Assay type: functional
OBSERVATION_TYPE: Activity
Respond with a number, then the unit of measure.

Form: molecule = CC(=O)NC[C@H]1CN(c2ccc(N3CCOCC3)c(F)c2)C(=O)O1 [LINEZOLID] ; Activity = 98%

Form: molecule = CC[C@H]1OC(=O)[C@H](C)[C@@H](O[C@H]2C[C@@](C)(OC)[C@@H](O)[C@H](C)O2)[C@H](C)[C@@H](O[C@@H]2O[C@H](C)C[C@H](N(C)C)[C@H]2O)[C@](C)(O)C[C@@H](C)C(=O)[C@H](C)[C@@H](O)[C@]1(C)O [ERYTHROMYCIN] ; Activity = 89%

Form: molecule = C[C@H]1COc2c(N3CCN(C)CC3)c(F)cc3c(=O)c(C(=O)O)cn1c23.C[C@H]1COc2c(N3CCN(C)CC3)c(F)cc3c(=O)c(C(=O)O)cn1c23.O [LEVOFLOXACIN] ; Activity = 98%

Form: molecule = CC1(C)S[C@@H]2[C@H](NC(=O)Cc3ccccc3)C(=O)N2[C@H]1C(=O)O [PENICILLIN G] ; Activity = 93%

Form: molecule = CO/N=C(\C(=O)N[C@@H]1C(=O)N2C(C(=O)O)=C(CSc3nc(=O)c(O)nn3C)CS[C@H]12)c1csc(N)n1 [CEFTRIAXONE] ; Activity = 92%
